# SYSTEM_TESTED: human recombinant melanocortin-4 receptor (human) (UniProt P32245)
# Sequence (P32245 whole entry): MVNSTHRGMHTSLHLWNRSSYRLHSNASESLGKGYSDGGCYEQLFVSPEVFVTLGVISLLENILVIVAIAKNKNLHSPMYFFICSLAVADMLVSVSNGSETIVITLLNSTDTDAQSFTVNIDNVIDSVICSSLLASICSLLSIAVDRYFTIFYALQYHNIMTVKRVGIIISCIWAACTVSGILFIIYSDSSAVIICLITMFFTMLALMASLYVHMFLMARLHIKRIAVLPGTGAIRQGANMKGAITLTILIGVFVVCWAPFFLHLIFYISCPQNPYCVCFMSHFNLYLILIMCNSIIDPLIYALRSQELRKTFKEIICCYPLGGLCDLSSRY
# ASSAY_TEXT: competitive inhibition of [I125]-NDP-α-MSH, hMC4-R HEK-293 membranes
pKi: −log10 of the molar value.
METRIC: pKi

RXXFRWX (N-acetyl; X2 = Dab; X3 = Dab; D-Phe 4; X7 = hGlu; side-chain lactam Dab2-hGlu7; C-terminal free acid (-OH)) [Ac-Arg-cyclo(Dab-Dab-D-Phe-Arg-Trp-hGlu)-OH]    7.46
RXXFRWX (N-acetyl; X2 = hGlu; X3 = Dab; D-Phe 4; X7 = Dab; side-chain lactam hGlu2-Dab7; C-terminal free acid (-OH)) [Ac-Arg-cyclo(hGlu-Dab-D-Phe-Arg-Trp-Dab)-OH]    7.35
